System: L1210 leukemia ip in BDF1 mice, survival T/C
Assay: NCI In Vivo Anticancer Drug Screen. Data for tumor model L1210 Leukemia (intraperitoneal) in B6D2F1 (BDF1) mice
Settings: endpoint: mean survival time; dose: 25.0 mg/kg/injection; schedule: Q04DX003 (ip); vehicle: saline with Tween-80; higher = longer survival
Toxic doses and inconclusive results are not listed.
Experimental endpoint: T/C

Compound: CC(=O)CC(=O)NCCCN1CCCCC1
T/C: 106 % of control

I need T/C for every entry listed below, if you could help.
1. CC[C@@]1(O)C(=O)OCc2c1cc1n(c2=O)Cc2cc3c(OC)cccc3nc2-1
2. CC(=O)OC1C(C)OC(OC2C=C3CCC4C(CCC5(C)C(c6ccc(=O)oc6)CCC45O)C3(C)CC2)C(OC(C)=O)C1OC(C)=O (stereo not drawn)

## Output
["96 % of control", "105 % of control"]

###

Assign T/C to each entry below.
Tested on: L1210 leukemia ip in BDF1 mice, survival T/C
Assay: NCI In Vivo Anticancer Drug Screen. Data for tumor model L1210 Leukemia (intraperitoneal) in B6D2F1 (BDF1) mice
Conditions: endpoint: mean survival time; dose: 200.0 mg/kg/injection; schedule: Q01DX009 (ip); vehicle: Klucel (hydroxypropylcellulose) (HPC); higher = longer survival
Toxic doses and inconclusive results are not listed.

// known answers, use as guide
Compound: O=S(=O)(Nc1ccc(NS(=O)(=O)c2ccccc2)nc1)c1ccccc1
Experimental system: L1210 leukemia ip in BDF1 mice, survival T/C
T/C: 98 % of control

Compound: O=C1C(C2(O)C(=O)Nc3ccccc32)CCCC1C1(O)C(=O)Nc2ccccc21 (centres undefined)
Experimental system: L1210 leukemia ip in BDF1 mice, survival T/C
T/C: 101 % of control

Compound: COc1ccc(OC)c(NC(=O)Nc2ccc([N+](=O)[O-])cc2OC)c1
Experimental system: L1210 leukemia ip in BDF1 mice, survival T/C
T/C: 93 % of control

I'm hoping you can list T/C for every compound here, please.
1. CCCCCCCCCCCCCCCCCC(=O)N/N=C/c1cccc([N+](=O)[O-])c1
2. CCCCC(C(C)=O)C(C)=O

## Output
["96 % of control", "100 % of control"]

###

Tested on: L1210 leukemia ip in BDF1 mice, survival T/C
Experiment: NCI In Vivo Anticancer Drug Screen. Data for tumor model L1210 Leukemia (intraperitoneal) in B6D2F1 (BDF1) mice
Conditions: endpoint: mean survival time; dose: 400.0 mg/kg/injection; schedule: Q04DX003 (ip); vehicle: saline with Tween-80; higher = longer survival
Toxic doses and inconclusive results are not listed.
Experimental endpoint: T/C

Here is how some molecules turned out for T/C.
Molecule: OCC(O)COc1ccc(Cl)cc1 (configuration not stated)
Experimental system: L1210 leukemia ip in BDF1 mice, survival T/C
Measured result: 100 % of control
//
Molecule: CCC(CO)NC(=O)/C=C/c1ccccc1 (configuration not stated)
Experimental system: L1210 leukemia ip in BDF1 mice, survival T/C
Measured result: 91 % of control

// batch mode: one T/C value per listed entry
1. O=C1c2cccc(Sc3ccccc3)c2C(=O)c2c(Sc3ccccc3)cccc21
2. CCC(C)OC(=O)Nc1cccc(OC(=O)NC)c1 (configuration not stated)
3. COC(=O)C(I)C(OC)c1ccccc1 (configuration not stated)

## Output
1: 91 % of control; 2: 97 % of control; 3: 95 % of control

Parameter requested: T/C. Apply to each item below.
1. CCNC(=O)OCCc1c2ccccc2[n+]([O-])c2ccccc12
2. CCCCN1C(=O)c2ccncc2C1=O
3. COP(=S)(N/N=C/c1ccccn1)OC
4. N#CC(C#N)C1c2ccccc2C([N+](=O)[O-])c2ccccc21 (configuration not stated)

## Output
1. 90 % of control
2. 100 % of control
3. 108 % of control
4. 101 % of control

Look at each molecule and report its T/C.
1. S=c1[nH]cc2cnccn12
2. COC(=O)C(CSCSC)NC(=O)/C=C/c1ccc(C)cc1 (configuration not stated)
3. O=C1OC(c2ccc(Cl)cc2)Sc2ccccc21 (configuration not stated)
4. C=CN(C=C)P(=O)(C1C(=O)C(C(=O)OCC)C(c2ccc(OC(C)=O)cc2)C(C(=O)OCC)C1=O)C1C(=O)C(C(=O)OCC)C(c2ccc(OC(C)=O)cc2)C(C(=O)OCC)C1=O (configuration not stated)
5. O=C(O)/C=C\c1cccc([N+](=O)[O-])c1
6. S=C(Nc1ccccc1)N1CC1
7. O=C1CC(=C2C(=O)c3ccccc3C2=O)c2ccccc21

## Output
["89 % of control", "91 % of control", "100 % of control", "100 % of control", "92 % of control", "90 % of control", "106 % of control"]

###

Tested on: L1210 leukemia ip in BDF1 mice, survival T/C
Assay: NCI In Vivo Anticancer Drug Screen. Data for tumor model L1210 Leukemia (intraperitoneal) in B6D2F1 (BDF1) mice
Details: endpoint: mean survival time; dose: 100.0 mg/kg/injection; schedule: Q04DX002 (ip); vehicle: Klucel (hydroxypropylcellulose) (HPC); higher = longer survival
Inconclusive results and toxic doses are left out.
Experimental endpoint: T/C

A selection of reference data follows.
Compound: O=C(CCCCNC(=O)C1CCCN1Sc1ccc([N+](=O)[O-])cc1[N+](=O)[O-])OCc1ccccc1 (stereo not given)
T/C: 90 % of control
--
Compound: COc1ccc(NC(=O)c2ccc(C(=O)Nc3ccc(OC)cc3OC)cc2)c(OC)c1
T/C: 90 % of control

Provide the reported T/C of each entry below, same order.
1. CC(=O)OC1CCC2(C)C(=CCC3C2CCC2(C)C3CC3C(c4ccccc4)=NN(c4ccccc4)C32C(C)=O)C1 (stereo not given)
2. CCCCC(C(C)=O)C(C)=O

## Output
1: 92 % of control; 2: 86 % of control

## Input Form field: reported T/C of O=C1OC(/C=C\c2ccccc2)=NC/1=C\c1cc(Cl)cc(Cl)c1O
## Output 108 % of control

###

Test system: L1210 leukemia ip in BDF1 mice, survival T/C
Test: NCI In Vivo Anticancer Drug Screen. Data for tumor model L1210 Leukemia (intraperitoneal) in B6D2F1 (BDF1) mice
Settings: endpoint: mean survival time; dose: 400.0 mg/kg/injection; schedule: Q01DX001 (ip); vehicle: carboxymethylcellulose (CMC); higher = longer survival
Toxic doses and inconclusive results are not listed.
Provide the recorded T/C for the entries that follow.

Parameter requested: T/C. Apply to each item below.
1. COC(=O)c1sc2ccccc2c1CC#N
2. C=C1C[C@]23C[C@@]1(O)CC[C@H]2[C@@]12C=C[C@H](O)[C@@](C)(C(=O)O1)[C@H]2[C@@H]3C(=O)O
3. COc1ccccc1NP1(=O)OCC(C)([N+](=O)[O-])CO1 (stereo unspecified)
4. O=C(Nc1ccc(Br)cc1)c1cc(Br)ccc1O
5. Cc1cccc([N+](=O)[O-])c1N

## Output
["103 % of control", "94 % of control", "93 % of control", "94 % of control", "115 % of control"]

## Input Can you share its T/C? I mean this molecule: CCCCCCOC(=O)Nc1ccc(S(=O)(=O)CC)cc1
## Output 97 % of control

###

Tested on: L1210 leukemia ip in BDF1 mice, survival T/C
Assay: NCI In Vivo Anticancer Drug Screen. Data for tumor model L1210 Leukemia (intraperitoneal) in B6D2F1 (BDF1) mice
Conditions: endpoint: mean survival time; dose: 100.0 mg/kg/injection; schedule: Q04DX003 (ip); vehicle: saline; higher = longer survival
Toxic doses and inconclusive results are not listed.
Experimental endpoint: T/C

Compound: Clc1ccnc(Cl)n1
Experimental system: L1210 leukemia ip in BDF1 mice, survival T/C
Experimental endpoint: T/C
Measured result: 96 % of control
//
Compound: COc1cc(C(=O)OC(C)CN2CCOCC2)cc(OC)c1OC (stereo not drawn)
Experimental system: L1210 leukemia ip in BDF1 mice, survival T/C
Experimental endpoint: T/C
Measured result: 101 % of control
//
Compound: NC1CCC1N (stereo not drawn)
Experimental system: L1210 leukemia ip in BDF1 mice, survival T/C
Experimental endpoint: T/C
Measured result: 104 % of control
//
Compound: c1ccc2cc3nc4ccccc4nc3cc2c1
Experimental system: L1210 leukemia ip in BDF1 mice, survival T/C
Experimental endpoint: T/C
Measured result: 108 % of control
//
Compound: C/C(=C/c1c(C)[nH]c(=O)[nH]c1=O)C(=O)O
Experimental system: L1210 leukemia ip in BDF1 mice, survival T/C
Experimental endpoint: T/C
Measured result: 98 % of control

Give T/C for each of the items listed below.
1. CCOC(=O)/C(C)=N\N(C)C
2. CCCCCCCCCCCC(=O)Nc1cc(C(C)C)ccc1C

## Output
1: 97 % of control; 2: 88 % of control

## Input Record request: T/C value, item OCC(O)C(O)C(O)/C=N\O (stereo not drawn)
## Output 107 % of control
